# procedure_text: NCI Yeast Anticancer Drug Screen. Data for the sgs1 mgt1 strain (AID 161);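 also: 0% = growth of cultures given vehicle only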
# recorded_conditions: S. cerevisiae sgs1 mgt1 strain, at 50.0 µM (retest, dose inferred, filed as 5.0), active compounds read high
Compounds without any hit were thinned out: in the full panel of roughly 79,000, 15% have a hit. The source made the active and inactive calls. Rule as the data show it: active = growth inhibition above about 70%; inactive = the rest.
attribute_measured: growth inhibition

// known answers, use as guide
{"compound": "Cc1cc2c(c(C(N)=O)c1C)-c1cccc(F)c1C2=O", "growth inhibition": "20% (inactive)"}
{"compound": "COc1cc(C(c2ccccc2)c2ccccc2)c2ccccc2c1O", "growth inhibition": "25% (inactive)"}
{"compound": "Nc1ccccc1Sc1ccc(C(F)(F)F)cc1[N+](=O)[O-]", "growth inhibition": "23% (inactive)"}

Now turn to the next compound.
Prompt: Look at this compound and give its reported growth inhibition. CCCCCCCCCC(=O)CC(=O)c1c(O)cccc1O
Completion: 96% (active)

* * *

# procedure_text: NCI Yeast Anticancer Drug Screen. Data for the bub3 strain (AID 167)
# recorded_conditions: S. cerevisiae bub3 mutant strain, at 5.0 µM (retest, dose inferred, filed as 0.5), active compounds read high
Compounds without any hit were thinned out: in the full panel of roughly 79,000, 15% have a hit.
attribute_measured: growth inhibition (%)
Reply with just the number (in %).

Here are 8 compounds together with their reported answers.
{"compound": "COC(=O)C(=C(c1ccccc1)c1ccccc1)c1ccccc1", "unit_abbreviation": "%", "growth inhibition": -2}
{"compound": "CCN(CC)CCOC(=O)C1CCCCC1C(=O)C1CCCCC1 (stereo not given)", "unit_abbreviation": "%", "growth inhibition": -3}
{"compound": "CC(C)(C)OC(=O)Nc1cccc(Cl)c1", "unit_abbreviation": "%", "growth inhibition": 46}
{"compound": "CCOc1ccc(/C=C2\\NC(=S)N(/C=C3\\C(=O)Oc4ccccc4C3=O)C2=O)cc1", "unit_abbreviation": "%", "growth inhibition": -31}
{"compound": "O=C(N/C(=C\\c1cc(Cl)ccc1Cl)c1nc2ccc(Cl)cc2[nH]1)c1ccccc1", "unit_abbreviation": "%", "growth inhibition": 31}
{"compound": "CCCCCCC1CCC(CCCCCCCC(=O)N2CCN(C)CC2)C(C/C=C/CCCCCCCC(=O)N2CCN(C)CC2)C1CCCCC (stereo not given)", "unit_abbreviation": "%", "growth inhibition": 4}
{"compound": "CCC(CC)(c1ccc(C)cc1)c1ccc(C)cc1", "unit_abbreviation": "%", "growth inhibition": 22}
{"compound": "COC([C@@H](OC(=O)c1ccccc1)[C@H](OC(=O)c1ccccc1)C(O)COC(=O)c1ccccc1)n1cc(C)c(=O)[nH]c1=O (stereo not given in full)", "unit_abbreviation": "%", "growth inhibition": -19}

Prompt: Returns the measured growth inhibition for the input compound. Input: COc1ccc2ccc3c(c2c1)CCC(C(=O)O)C3CC(=O)O (stereo not given)
Completion: -11

Prompt: Entry under review: Cc1ccc(O)c(C(c2cc(C)ccc2O)c2cc([N+](=O)[O-])ccc2O)c1 . Reported growth inhibition?
Completion: 5

* * *

# procedure_text: NCI Yeast Anticancer Drug Screen. Data for the sgs1 mgt1 strain (AID 161);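 also: 0% = growth of cultures given vehicle only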
# recorded_conditions: S. cerevisiae sgs1 mgt1 strain, at 5.0 µM (retest, dose inferred, filed as 0.5)
The panel holds about 79,000 compounds, 15% with a hit somewhere; the sample as a whole holds those more often. The source made the active and inactive calls. No stated cut-off is given here; in the data, active means growth inhibition above about 70%; inactive means the rest. Where a SMILES comes first, the peptide text is derived from it. The star is where a group is joined. OSu = O=C1CCC(=O)N1O*; OBn = c1ccc(CO*)cc1; Bn = c1ccc(C*)cc1
Pick one: label 1 (active), label 0 (inactive)

{"molecule": "CC1CC(N)=NC1C(=O)NCCC#N (stereo unspecified)", "qualitative_label": "label 0"}
{"molecule": "CNc1ccc(N=O)cc1", "qualitative_label": "label 0"}
{"molecule": "CCCCC(Oc1cc(C(C)(C)C)c(O)c(C(C)(C)C)c1)C(=O)O (stereo unspecified)", "qualitative_label": "label 0"}
{"molecule": "CC(NNC(=S)N1CCCCCC1)c1cc2ccccc2cn1 (stereo unspecified)", "qualitative_label": "label 1"}
{"molecule": "OCCc1ccccc1C(c1ccccc1)c1ccccc1", "qualitative_label": "label 0"}

Prompt: So what was the verdict on CC(C)CC(NC(=O)C(N)CCC(=O)OCc1ccccc1)C(=O)NC(COCc1ccccc1)C(=O)NC(Cc1ccccc1)C(=O)ON1C(=O)CCC1=O (stereo unspecified) (H-E(OBn)LS(Bn)F-OSu; configuration not given here) in this test?
Completion: label 0

Prompt: # fetch the recorded call for OC(C/C(CNNc1ccccc1)=N/Nc1ccccc1)(C(F)(F)F)C(F)(F)F here
Completion: label 0

Prompt: What is the recorded call for this molecule in the test? O=C1CSC(c2ccc([N+](=O)[O-])cc2)N1c1ccc(-c2ccc(-n3c(-c4ccccc4)nc4ccccc4c3=O)cc2)cc1 (stereo unspecified)
Completion: label 0

Prompt: Returns: the outcome recorded for N#Cc1ncc(Cl)cc1[N+](=O)[O-] in this assay.
Completion: label 1

* * *

# procedure_text: NCI Yeast Anticancer Drug Screen. Data for the mlh1 rad18 strain (AID 175)
# recorded_conditions: S. cerevisiae mlh1 rad18 strain growth inhibition; at 50.0 µM (retest, dose inferred, filed as 5.0)
About 79,000 compounds went through this panel and 15% of them were active in at least one assay; those are over-represented in the sample as a whole. Active and inactive are the calls of the source. No stated cut-off is given here; in the data, active means growth inhibition above about 70%; inactive means the rest.
Returns: one label drawn from YES = active, NO = inactive

Past entries and their recorded results:
{"compound": "O=C(O)COc1cc(Br)cc(Br)c1-c1ccccc1", "qualitative_label": "YES"}
{"compound": "Cc1n[n+]([O-])c(C)cc1[N+](=O)[O-]", "qualitative_label": "YES"}

Prompt: Query: recorded result category for CCC[CH2][Sn]([CH2]CCC)([O]C(=O)c1cc(OC)c(OC)cc1OC)[O][Sn]([CH2]CCC)([CH2]CCC)[O]C(=O)c1cc(OC)c(OC)cc1OC in this test
Completion: YES

Prompt: Write down the call the test reported for this compound. Item: CC(C)=CN(C)C (tested in a mixture with another compound)
Completion: YES

Prompt: Per the records of this test, what outcome belongs to O=S(=O)(c1cc(Cl)ccc1Cl)N1CCc2ccccc2C1 ?
Completion: NO

Prompt: Dear all, I need the recorded test outcome for Cc1c2ccncc2c(C)c2c1sc1ccccc12 , thank you.
Completion: YES

Prompt: # fetch the recorded call for CC(C(=O)c1ccc2cc(Br)c3ccccc3c2c1)N(C)C (stereo unspecified) here
Completion: YES

Prompt: Which outcome was assigned to N#CC(C#N)=c1c2nsnc2c(=C(C#N)C#N)c2nsnc12 in this test?
Completion: YES

Prompt: Per the assay record, what outcome was assigned to Cc1cc(C)nc(NS(=O)(=O)c2ccc(Nc3nc(-c4cccc([N+](=O)[O-])c4)cs3)cc2)n1 ?
Completion: YES

Prompt: State the result this test recorded for N#CC12CC3=C(N=C1NC1=C(CCc4ccccc41)C2)c1ccccc1CC3 (stereo unspecified) .
Completion: NO

Prompt: Which outcome was assigned to C=C(C)C1CC2=C(O1)C(=O)c1ccccc1C2=O (stereo unspecified) in this test?
Completion: YES

* * *

# procedure_text: NCI Yeast Anticancer Drug Screen. Data for the cln2 rad14 strain (AID 165);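 also: 0% = growth equal to vehicle treated cultures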
# recorded_conditions: S. cerevisiae cln2 rad14 strain, at 5.0 µM (retest, dose inferred, filed as 0.5)
The panel holds about 79,000 compounds, 15% with a hit somewhere; the sample as a whole holds those more often. The source made the active and inactive calls. Cut-off read from the data, not from the text of the source: active = growth inhibition above about 70%; inactive = the rest.
Choose the fitting class; nothing outside active, inactive is accepted.

Here's what some known entries look like.
{"compound": "O=C1NC(=S)S/C1=C\\c1cc(Cl)ccc1O", "qualitative_label": "inactive"}
{"compound": "CCOC(=O)C(F)C(Br)C(=O)OCC (configuration not stated)", "qualitative_label": "active"}
{"compound": "CC1(C)CC(O)C(O)C1 (configuration not stated)", "qualitative_label": "inactive"}
{"compound": "FC(F)(F)c1nc(Cl)nc2nc[nH]c12", "qualitative_label": "inactive"}
{"compound": "CN(C)c1ccc(C=Nc2ccc(OCCCCCCCCCCC(=O)O)cc2)cc1", "qualitative_label": "active"}
{"compound": "CCCCCCCCCCCCOC(=O)C[n+]1cccc(C(N)=O)c1", "qualitative_label": "inactive"}

Prompt: Field: outcome | Entry: c1ccc(-c2cc(CN3CCOCC3)c(-c3ccccc3)o2)cc1
Completion: inactive

* * *

Recorded measurements of growth inhibition, one per entry
# procedure_text: NCI Yeast Anticancer Drug Screen. Data for the mec2-1 strain (AID 157)
# recorded_conditions: S. cerevisiae mec2-1 strain, at 50.0 µM, active compounds read high
Compounds without any hit were thinned out: in the full panel of roughly 79,000, 15% have a hit. Active and inactive are the calls of the source. No stated cut-off is given here; in the data, active means growth inhibition above about 70%; inactive means the rest.

{"molecule": "COc1ccc(N=N/N=c2\\sc3cc(Cl)ccc3n2C)cc1", "growth inhibition": "6.15% (inactive)"}
{"molecule": "COc1ccc(Cc2nc3ccccc3s2)cc1OC", "growth inhibition": "92.8% (active)"}
{"molecule": "O=C(O)CC(NC(=O)CP(=O)(O)O)C(=O)O.[NH-]C1CCCCC1[NH-].[Pt+2] (stereo unspecified)", "growth inhibition": "-27.1% (inactive)"}
{"molecule": "COC(=O)Cn1/c(=N\\N=C(/C)c2ccc(C)cc2)sc2ccccc21", "growth inhibition": "26.7% (inactive)"}
{"molecule": "Cc1nc(N)nn1C", "growth inhibition": "6.1% (inactive)"}

# context switch: different molecule, same growth inhibition
Prompt: Please look up its growth inhibition: CCN(CC)c1cccc(OC(=O)Nc2cccc(C(F)(F)F)c2)c1
Completion: 81.2% (active)

Recorded values, source PubChem BioAssay (NCI).
